Experiment: Pharmacokinetics assay in rats after intragastrical administration
Format: in vivo, Sprague-Dawley (SD) rats
Settings: both sexes, Sprague-Dawley, rat, plasma, po; SD rats, intragastric, 2 mg/kg; read-out: Plasma Concentration Cmax
This section presents compounds with their documented Cmax values.
Please state the figure in ng/mL; there is no need to write the unit.

These solved cases illustrate the format of a correct answer.
compound	unit_text	reported
COc1cn([C@@H](Cc2ccccc2)C(=O)Nc2ccc(C(=O)O)cc2)c(=O)cc1-c1c(C(C)=O)ccc(Cl)c1F	ng/mL	234
COc1cn([C@@H](CCOC(C)(C)C)C(=O)Nc2ccc(C(=O)O)cc2)c(=O)cc1-c1cc(Cl)ccc1C(C)=O	ng/mL	252
CCC(=O)c1ccc(Cl)cc1-c1cc(=O)n([C@@H](CCOC(C)(C)C)C(=O)Nc2ccc(C(=O)O)cc2)cc1OC	ng/mL	105
COc1cn([C@@H](Cc2ccncc2)C(=O)Nc2ccc(C(=O)O)cc2)c(=O)cc1-c1cc(Cl)ccc1C#N [Comparative Example 1, reference compound]	ng/mL	7.02

(Q) Any idea what Cmax was measured for `COc1cn([C@@H](Cc2cccnc2)C(=O)Nc2ccc(C(=O)O)cc2)c(=O)cc1-c1cc(Cl)ccc1C(C)=O` ?
(A) 48.8

(Q) # iterate: `CCC(=O)c1ccc(Cl)cc1-c1cc(=O)n([C@@H](Cc2ccccc2)C(=O)Nc2ccc(C(=O)O)cc2)cc1OC`
(A) 128

(Q) # iterate: `COc1cn([C@@H](Cc2ccccc2)C(=O)Nc2ccc(C(N)=O)cc2)c(=O)cc1-c1cc(Cl)ccc1C(C)=O`
(A) 73.1
